The reported numbers originate from patent US20210054078A1.

Target: T1, mouse PD-L1 on mPD-L1/CHO-K1 overexpressing cells (mouse, UniProt Q9EP73 19-290)
T1 construct: whole, on cells; also called mouse PD-L1-expressing cells
T1 sequence (Q9EP73 19-290): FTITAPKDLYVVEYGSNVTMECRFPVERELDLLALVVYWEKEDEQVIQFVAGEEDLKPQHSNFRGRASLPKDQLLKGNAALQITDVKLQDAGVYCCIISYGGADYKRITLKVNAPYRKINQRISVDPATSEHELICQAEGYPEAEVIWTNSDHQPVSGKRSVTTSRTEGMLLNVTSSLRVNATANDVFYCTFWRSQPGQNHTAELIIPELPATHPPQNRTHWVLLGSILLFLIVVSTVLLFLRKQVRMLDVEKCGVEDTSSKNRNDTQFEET
Assay: flow cytometry on mPD-L1/CHO-K1 cells (sheet label mPD-1/CHO-K1)
endpoint: Geo Mean, all events
Lab note: write the figure by itself, no unit.

>  <binder>
ME4.A2 anti-PD-L1 antibody (IgG form) (antibody, V domains shown) VH: QVQLVESGAEVKKPGSSVKVSCKASGGTFNNYAVSWVRQAPGQGLEWMGRIIPILGIANYAQTFQGRVTITADKSTTTAYMELSSLRSEDTAVYYCARSSRGYAHGAFDIWGQGTMVTVSS VL: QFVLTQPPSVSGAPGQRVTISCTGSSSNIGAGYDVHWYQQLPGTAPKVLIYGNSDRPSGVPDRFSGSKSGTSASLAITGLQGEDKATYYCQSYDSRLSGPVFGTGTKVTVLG

>  <endpoint>
Geo Mean, all events

>  <recorded_measurement>
10.8

$$$$

Query: // Geo Mean, all events lookup, key: ME4.B10 anti-PD-L1 antibody (IgG form) (antibody, V domains shown) VH: QVQLVESGAEVKKPGSSVKVSCKASGGTFNNYAVSWVRQAPGQGLEWMGRIIPILGIANYAQTFQGRVTITADKSTTTAYMELSSLRSEDTAVYYCARSARGYAHGAFDIWGQGTMVTVSS VL: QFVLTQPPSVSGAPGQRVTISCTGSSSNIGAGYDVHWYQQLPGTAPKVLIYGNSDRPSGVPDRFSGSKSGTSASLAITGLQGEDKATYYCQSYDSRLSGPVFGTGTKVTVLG
Response: 6.41

Query: // Geo Mean, all events lookup, key: ME4 anti-PD-L1 antibody (IgG form) (antibody, V domains shown, Converted to IgG with the vectors pIgGHD-6A6Hvy and pIgGLD-6A6Lgt; Expressed in Expi293F cells) VH: QVQLVESGAEVKKPGSSVKVSCKASGGTFNNYAVSWVRQAPGQGLEWMGRIIPILGIANYAQTFQGRVTITADKSTTTAYMELSSLRSEDTAVYYCARSYSGYAEGAFDIWGQGTMVTVSS VL: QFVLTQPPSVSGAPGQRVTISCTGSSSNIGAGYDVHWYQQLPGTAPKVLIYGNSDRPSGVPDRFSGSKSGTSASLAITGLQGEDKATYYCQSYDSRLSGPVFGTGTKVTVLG
Response: 10.4
